List of pIC50 values.
target: JAK1 (recombinant purified GST-tagged catalytic domain) (Homo sapiens (Human)); test: Jak Biochemical HTRF Assay (JAK1); settings: [ATP] 31.8 μM
Hey, just a heads up that pIC50 is the negative log base 10 of the concentration in molar.

# example entries with known answers
>  <Chemical string>
CC(C)N(C)S(=O)(=O)c1ccc(Nc2nn([C@]3(CC#N)CC[C@@H](C(=O)OC(C)(C)C)OC3)c3cc[nH]c(=O)c23)cc1

>  <pIC50>
9.85

$$$$
>  <Chemical string>
CN(C(=O)[C@@H]1CC[C@@](CC#N)(n2nc(Nc3ccc4c(c3)CN(C(C)(C)C)S4(=O)=O)c3c(=O)[nH]ccc32)CO1)C(C)(C)C

>  <pIC50>
10.00

$$$$
>  <Chemical string>
CC(C)(C)OC(=O)[C@@H]1CC[C@@](CC#N)(n2nc(Nc3ccc4c(c3)CN(C(C)(C)C)S4(=O)=O)c3c(=O)[nH]ccc32)CO1

>  <pIC50>
10.05

$$$$

What does the record list as pIC50 for COC(=O)N1CCC(CC#N)(n2nc(Nc3ccc4c(c3)CN(CC3CCCC3)S4(=O)=O)c3c(=O)[nH]ccc32)CC1 ?
9.92

====

Molecular target: JAK1 (recombinant purified GST-tagged catalytic domain) (Homo sapiens (Human), UniProt P23458)
Sequence (P23458 875-1153): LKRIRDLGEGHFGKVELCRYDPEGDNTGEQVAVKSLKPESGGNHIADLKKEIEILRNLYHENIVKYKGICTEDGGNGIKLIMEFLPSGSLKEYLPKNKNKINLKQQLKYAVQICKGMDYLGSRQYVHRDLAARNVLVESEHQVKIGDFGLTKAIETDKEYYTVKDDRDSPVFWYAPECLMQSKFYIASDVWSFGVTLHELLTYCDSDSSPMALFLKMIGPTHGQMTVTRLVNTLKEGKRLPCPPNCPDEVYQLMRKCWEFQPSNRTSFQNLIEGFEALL
Test: Jak Biochemical HTRF Assay (JAK1)
Details: [ATP] 31.8 μM
Method: Jak Biochemical HTRF Assay Protocol The ability of compounds to inhibit the activity of JAK1, JAK2, JAK3, and Tyk2 was measured using a recombinant purified GST-tagged catalytic domain for each enzyme (Invitrogen JAK1 #M4290, JAK2 #M4290, JAK3 #M4290, Tyk2 #M4290) in an HTRF format biochemical assay. […] Plates were shaken and centrifuged and then incubated 60 minutes at room temperature and then read on a Perkin Elmer Envision (λex=337 nm, λem=665 and 615 nm, TRF delay time=20 μs). […]
Binary call on IC50 with cut-off 0.2 nM: strictly below means class 1, and equality or higher means class 0.

>  <Compound>
CN(C)S(=O)(=O)c1ccc(Nc2nn(C3(CC#N)CCN(C(=O)CCC4CC4)CC3)c3cc[nH]c(=O)c23)cc1

>  <Label value>
class 1

$$$$
>  <Compound>
CC(C)S(=N)(=O)c1ccc(Nc2nn([C@]3(CC#N)CCCOC3)c3cc[nH]c(=O)c23)cc1 (single isomer, unassigned) [Example 5-232]

>  <Label value>
class 0

$$$$
>  <Compound>
CC(C)(C)NC(=O)[C@@H]1CC[C@@](CC#N)(n2nc(Nc3ccc4c(c3)CN(C(C)(C)C)S4(=O)=O)c3c(=O)[nH]ccc32)CO1

>  <Label value>
class 1

$$$$
>  <Compound>
CC(C)(C)OC(=O)N1CCC(CC#N)(n2nc(Nc3ccccc3)c3c(=O)[nH]ccc32)CC1

>  <Label value>
class 0

$$$$
>  <Compound>
COC(=O)N1CCC(CC#N)(n2nc(Nc3ccc(S(=O)(=O)C(C)(C)C)cc3)c3c(=O)[nH]ccc32)CC1

>  <Label value>
class 1

$$$$

Criterion: IC50 strictly below 0.2 nM. Is it met by CC(C)NC(c1ccc(Nc2nn([C@]3(CC#N)CCCOC3)c3cc[nH]c(=O)c23)cc1)C(F)(F)F (single isomer, unassigned) [Example 5-206] ?
class 1

For CC(C#N)OC(=O)N1CCC(CC#N)(n2nc(Nc3ccc(S(=O)(=O)N(C)C)cc3)c3c(=O)[nH]ccc32)CC1 (centres unmarked) , is the recorded IC50 below the cut-off of 0.2 nM?
class 1

Is IC50 strictly under 0.2 nM for the entry CN(C(C)(C)C(=O)OC(C)(C)C)S(=O)(=O)c1ccc(Nc2nn(C3(CC#N)CCCC3)c3cc[nH]c(=O)c23)cc1 ?
class 0

Check if IC50 falls below 0.2 nM for N#CC[C@]1(n2nc(Nc3ccc(Cl)cc3)c3c(=O)[nH]ccc32)CC[C@H](NCC(F)(F)F)CC1 .
class 0

Decide: IC50 of N#CC[C@@]1(n2nc(Nc3ccc4c(c3)CN(C3CCNCC3)S4(=O)=O)c3c(=O)[nH]ccc32)CCOC[C@@H]1F (single isomer, unassigned) strictly below 0.2 nM?
class 1

====

Listed next: entries and their corresponding pIC50.
target: JAK1 (recombinant purified GST-tagged catalytic domain) (Homo sapiens (Human), UniProt P23458); test: Jak Biochemical HTRF Assay (JAK1); conditions: [ATP] 31.8 μM
Would you please state pIC50, meaning minus log10 of the concentration in mol/L, as a bare number?

Recorded pIC50, per entry:
>  <Compound>
N#CCC1(n2nc(Nc3ccc(S(=O)(=O)N4CCC4)cc3)c3c(=O)[nH]ccc32)CCCC1

>  <pIC50>
9.41

$$$$
>  <Compound>
CC(C)(C)OC(=O)N1CCC(CC#N)(n2nc(Nc3ccc4c(c3)CN(CC(F)(F)F)S4(=O)=O)c3c(=O)[nH]ccc32)CC1

>  <pIC50>
9.72

$$$$
>  <Compound>
CC(C)NS(=O)(=O)c1ccc(Nc2nn(C3(CC#N)CCN(C(=O)OC(C)(C)C)CC3)c3cc[nH]c(=O)c23)cc1F

>  <pIC50>
9.38

$$$$
>  <Compound>
CN(C(C)(C)C)S(=O)(=O)c1ccc(Nc2nn([C@]3(CC#N)CC[C@@H](C(=O)OC(C)(C)C)OC3)c3cc[nH]c(=O)c23)cc1

>  <pIC50>
9.48

$$$$
>  <Compound>
CO[C@@H](c1ccc(Nc2nn(C3(CC#N)CCN(C(=O)OC(C)(C)C)CC3)c3cc[nH]c(=O)c23)cc1)C(F)(F)F (single isomer, unassigned)

>  <pIC50>
9.01

$$$$
>  <Compound>
CC(C)(C)OC(=O)N1CCC(CC#N)(n2nc(Nc3ccc(C4(C(F)(F)F)CCNC4)cc3)c3c(=O)[nH]ccc32)CC1 (single isomer, unassigned) [Example 5-282]

>  <pIC50>
9.48

$$$$
>  <Compound>
CC(C)(C)N1Cc2cc(Nc3nn([C@@]4(CC#N)CCOC[C@H]4F)c4cc[nH]c(=O)c34)ccc2C1=O (single isomer, unassigned)

>  <pIC50>
9.59

$$$$
>  <Compound>
CC(C)(C)OC(=O)N1CCC(CC#N)(n2nc(Nc3ccc([C@@]4(C(F)(F)F)CCCCN4)cc3)c3c(=O)[nH]ccc32)CC1 (single isomer, unassigned)

>  <pIC50>
9.20

$$$$

We next turn to a different compound, shown below.
If you can, please state the reported pIC50 value of Cc1cc(Nc2nn([C@]3(CC#N)CC[C@@H](C(=O)OC(C)(C)C)OC3)c3cc[nH]c(=O)c23)ccc1C(=O)N1CCSC1 .
9.74

====

molecular target: JAK2 (recombinant purified GST-tagged catalytic domain) (Homo sapiens (Human), UniProt O60674); assay: Jak Biochemical HTRF Assay (JAK2); settings: [ATP] 8.5 μM
Sequence (O60674 849-1124): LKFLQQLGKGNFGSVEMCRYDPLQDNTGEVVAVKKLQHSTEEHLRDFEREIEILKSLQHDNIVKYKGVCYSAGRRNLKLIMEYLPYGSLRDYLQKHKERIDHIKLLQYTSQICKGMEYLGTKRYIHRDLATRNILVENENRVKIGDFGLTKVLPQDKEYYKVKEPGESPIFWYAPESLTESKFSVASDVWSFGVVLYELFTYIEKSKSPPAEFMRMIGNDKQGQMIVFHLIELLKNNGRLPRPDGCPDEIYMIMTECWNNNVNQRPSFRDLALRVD
In this section we review reported IC50 values for a set of molecules.

Example cases with answers are listed next.
>  <Chemical string>
CN(C)S(=O)(=O)c1ccc(Nc2nn(C3(CC#N)CCN(CCCc4ccccc4)CC3)c3cc[nH]c(=O)c23)cc1

>  <IC50>
2.84 nM

$$$$
>  <Chemical string>
N#CC[C@]1(n2nc(Nc3ccc(Cl)c(F)c3)c3c(=O)[nH]ccc32)CC[C@@H](Nc2ccccc2)CC1

>  <IC50>
> 1500 nM

$$$$

Returns the measured IC50 for the input molecule. Input: COC1CN([C@H]2CC[C@@](CC#N)(n3nc(Nc4ccc(Cl)c(F)c4)c4c(=O)[nH]ccc43)CC2)C1
> 1500 nM

====

target: JAK2 (recombinant purified GST-tagged catalytic domain) (Homo sapiens (Human), UniProt O60674); assay: Jak Biochemical HTRF Assay (JAK2); conditions: [ATP] 8.5 μM
Measurement kind: IC50 (nM)
Report the figure in nM without appending any unit label.

Consider the compound N#CC[C@@]1(n2nc(Nc3cc(F)c4nccc(Cl)c4c3)c3c(=O)[nH]ccc32)CCOC1 (single isomer, unassigned) and give its measured IC50.
100

====

target: JAK1 (recombinant purified GST-tagged catalytic domain) (Homo sapiens (Human)); test: Jak Biochemical HTRF Assay (JAK1); settings: [ATP] 31.8 μM
Listing of recorded pIC50 by entry.
As a rule, pIC50 stands for the negative log10 of the concentration, concentration in M.

Fill blank: measured pIC50 of the compound Cc1cc(Nc2nn([C@]3(CC#N)CC[C@@H](C(=O)OC(C)(C)C)OC3)c3cc[nH]c(=O)c23)ccc1C(=O)N1CC(C)OC(C)C1 (single isomer, unassigned) [Example 20-12] is ____.
9.60

Sample CC1(C)OC(=O)c2ccc(Nc3nn(C4(CC#N)CCCC4)c4cc[nH]c(=O)c34)cc21 — what was its pIC50?
8.34

What value of measured pIC50 is listed for CN(C)S(=O)(=O)c1ccc(Nc2nn([C@@]3(CC#N)CCCC[C@H]3F)c3cc[nH]c(=O)c23)cc1 [Example 5-234] ?
9.20

Query: pIC50; subject: CS(=O)(=O)c1ccc(Nc2nn([C@]3(CC#N)CCCOC3)c3cc[nH]c(=O)c23)cc1
9.59

Quick check: pIC50 of CC(C)(C)OC(=O)N1CCC(CC#N)(n2nc(Nc3ccc([C@@H](O)C(F)(F)F)cc3)c3c(=O)[nH]ccc32)CC1 (single isomer, unassigned) ?
9.37

Which value of pIC50 has been reported for CC(C)(C)OC(=O)N1CC[C@](CC#N)(n2nc(Nc3ccc([C@H](O)C(F)(F)F)cc3)c3c(=O)[nH]ccc32)[C@H](F)C1 (single isomer, unassigned) in the records?
9.82

# lookup: pIC50 of CN(C)S(=O)(=O)c1ccc(Nc2nn(C3(CC#N)CCN(C(=O)O[C@@H]4CCOC4)CC3)c3cc[nH]c(=O)c23)cc1
9.92

// query pIC50 value for entry CN(C)S(=O)(=O)c1ccc(Nc2nn(C3(CC#N)CCN(C(=O)OC(C)(C)C)CC3)c3cc[nH]c(=O)c23)cc1
9.66
